Test system: HOP-62 NSCLC
protocol.text: NCI-60 one-dose screen, 48 h (100 = growth as untreated, 0 = no growth, -100 = all killed)
condition.notes: 10 µM unless noted
This is part of a sample that, as a whole, favours compounds with a hit. Of some 83,000 tested, about 20% had one in any assay.
The following compounds are shown together with reported growth values.
observable: growth (%)

compound	observable	display.unit	value
O=[N+]([O-])c1ccc(NC(=S)N/N=C/c2cc3ccccc3n3nnnc23)cc1	growth	%	49.3
O=C(Cn1c[n+](CC(=O)c2ccc(-c3ccccc3)cc2)c2ccccc21)Nc1cccc2cccnc12	growth	%	43.2
N#Cc1cc(-c2nc3ccccc3s2)c(=O)n(NS(=O)(=O)c2ccccc2)c1N	growth	%	90.1
NC1[C@H](c2c[nH]c3ccccc23)c2c([nH]c3ccccc23)[C@H]1c1c[nH]c2ccccc12 (some centres undefined)	growth	%	90.1
COc1cc(C(=O)Nc2cc3c(cc2Oc2cc(C)cc(C)c2)C(=O)N(C)[C@@H](CC(=O)N(C)O)C(=O)N3)c(Br)c(OC)c1OC	growth	%	-15.7
COc1cc(F)c(/C=C/c2cc(/C=C/c3cc(OC)c(OC)cc3F)on2)cc1OC	growth	%	107
COc1ccc(-c2cnc3c(-c4cccc5cnccc45)cnn3c2)cc1	growth	%	55.1
Cn1ccnc1C(=O)/C=C/c1ccc(CC(=O)Nc2ccc(Cl)cc2)cc1	growth	%	-21.2
COc1cc(C2C3=C(COC3=O)N(CCO)c3cc4c(cc32)CCC4)cc(OC)c1OC (centres undefined)	growth	%	7.11

---

The following compounds are shown together with reported growth values.
Test system: NCI-H460 lung
protocol.text: NCI-60 one-dose screen, 48 h (100 = growth as untreated, 0 = no growth, -100 = all killed)
condition.notes: 10 µM unless noted
Compounds without any hit were thinned out: in the full panel of roughly 83,000, 20% have a hit.
observable: growth (%)

compound	value
Cc1ccc(/C=C(/C#N)n2nnc3cccc(F)c32)cc1	-34.8
CC1(C)CC[C@]2(C(=O)O)CC[C@]3(C)C(=CC[C@@H]4[C@@]5(C)Cc6c([nH]c7ccccc67)C(C)(C)[C@@H]5CC[C@]43C)[C@@H]2C1	16.7
CCN(CC)c1ccc(C(=O)c2ccccc2)cc1	104
CC(=O)Oc1ccc(/C=N/NC(N)=S)nc1	96.4
COc1cc(/C=N/NC(=O)c2cnn3c2NC(c2ccccc2)C3)ccc1Oc1ccccc1 (stereo not given)	7.15
N#C/C(=C\c1ccc([N+](=O)[O-])s1)c1nc2cc(Cl)ccc2s1	6.38
O=C(Nc1ccc(Cl)cc1)c1cc(NCc2cc(O)ccc2O)ccc1O	98.7
Cc1cc2nc3c4ccc(Br)cc4n(CCN(C)C)c3nc2cc1C	2.47
N#C/C(=C\c1ccc(Cl)cc1)n1nnc2cc(F)c(F)cc21	-22.2
Cc1cc(C(=O)/C=C/c2ccc[nH]2)ccc1-n1ccc(C(F)(F)F)n1	98.9

---

The following compounds are shown together with reported growth values.
System: DU-145 prostate
protocol.text: NCI-60 one-dose screen, 48 h (100 = growth as untreated, 0 = no growth, -100 = all killed)
condition.notes: 10 µM unless noted
This is part of a sample that, as a whole, favours compounds with a hit. Of some 83,000 tested, about 20% had one in any assay.

compound	growth (%)
OCc1cnccc1NCCCCOc1ccc(Oc2ccccc2)cc1	80.2
COc1ccc(C(=O)c2cc(C)c(OC)c(C)c2)c(OC)c1OC(=O)C(Cl)Cl	4.39
COc1cc(/C=C/C(=O)c2nc3cc(F)ccc3nc2C)cc(OC)c1OC	22.9
Oc1c(Cl)cc(Cl)c(Cl)c1CNCCNCc1c(O)c(Cl)cc(Cl)c1Cl	45.9
Cn1ccnc1C(=O)/C=C/c1ccc(CC(=O)Nc2ccc(F)cc2)cc1	-15.6
O=C(Nc1ncc(Cc2cc(Cl)ccc2Cl)s1)c1cccs1	81.1
O=C1CC(=O)OC(c2ccc([N+](=O)[O-])cc2)O1	13.9
Cn1ccnc1C(=O)/C=C/c1ccc(CC(=O)Nc2ccc(Cl)cc2)cc1	6.47
Cc1ccc(S(=O)(=O)NNC(=O)/C(=C\c2ccc(Cl)cc2)c2nc3ccccc3s2)cc1	101
CC1=C(C(=O)/C=C/c2ccc(N(C)C)cc2)C(c2ccccc2)NC(=S)N1 (stereo unspecified)	107
N#C/C(=C\c1ccccn1)c1nc2cc(Cl)ccc2s1	92.8

---

Tested on: SR leukemia
protocol.text: NCI-60 one-dose screen, 48 h
condition.notes: 10 µM unless noted
About 83,000 compounds went through this panel and 20% of them were active in at least one assay; those are over-represented in the sample as a whole. The source made the active and inactive calls. The calls were made as follows: active = growth percent below 10; inactive = the rest.
Possible outcomes: active, inactive

structure.as.smiles	category.label
CCCCCN1C=C/C(=C\C(=O)N(C)c2ccc(Oc3ccccc3)cc2)c2ccccc21	inactive
CC(=O)c1ccc(NS(=O)(=O)c2cccc(C(=O)Nc3ccc(Br)cc3)c2)cc1	inactive
O=C(/C=C/c1ccc[nH]1)c1ccc(-n2ccc(C(F)(F)F)n2)c(F)c1	inactive
O=C(C[n+]1cccc2ccccc21)c1ccc(O)c(O)c1	active
N#C/C(=C\c1ccc(Cl)cc1)n1nnc2cc(F)c(F)cc21	active
C=C1C(=O)O[C@H]2[C@H]1CC/C(COC(=O)NCCc1c[nH]c3ccc(OC)cc13)=C\CC[C@@]1(C)O[C@@H]21	inactive
CCCCCCNC(=O)Oc1ccc(/C(=C(\C)c2ccccc2)c2ccc(OCCN3CCCCC3)cc2)cc1	active
CC(=O)Nc1ccc(-c2ccc3c(c2)NC(=O)/C3=C\c2ccc[nH]2)cc1	inactive
O=C1c2cccc3c(-c4ccc5c(c4)ncn5C4CCCCC4)ccc(c23)C(=O)N1c1nc2ccccc2s1	inactive
COc1ccc(CCn2cncc2-c2c[nH]c3ccccc23)cc1	inactive

---

Tested on: CAKI-1 renal
protocol.text: NCI-60 one-dose screen, 48 h (100 = growth as untreated, 0 = no growth, -100 = all killed)
condition.notes: 10 µM unless noted
The panel holds about 83,000 compounds, 20% with a hit somewhere; the sample as a whole holds those more often. The source made the active and inactive calls. Rule for the calls: active = growth percent below 10; inactive = the rest.
The following molecules are shown together with reported growth values.
observable: growth

structure.as.smiles	value
N#C/C(=C\c1c(-c2ccccc2)[nH]c2ccccc12)C(=O)c1ccc(Cl)cc1	59.6% (inactive)
N/C(=N\C(N)=N\c1nc2ccccc2s1)c1cnccn1	15.5% (inactive)
O=C(NO)c1ccc(-n2nc(-c3ccccc3)c3ccccc32)cc1	45.6% (inactive)
N#Cc1c(NC(=O)NCc2ccccc2)sc2c1CCCC2	38.1% (inactive)
COc1cc2c(=O)n(CCN(C)C)c3c4cc5c(cc4ccc3c2cc1OC)OCO5	-89.5% (active)
COc1ccc(-c2nc3sccn3c2/C=C/C(=O)c2ccc3c(c2)OCO3)cc1	78.3% (inactive)
Cc1ccc(NS(=O)(=O)c2ccc(-c3cnc(C4CC4)o3)cc2)cc1C(F)(F)F	42.7% (inactive)
Cc1cnc(C(=O)Nc2nc3ccc(S(=O)(=O)Nc4ccc(C(C)(C)C)cc4)cc3[nH]2)cn1	27.3% (inactive)
CC(=O)[C@H]1CCC/C=C/[C@@H]2C[C@H](O)C[C@H]2[C@H](O)/C=C/C(=O)O1	-15.7% (active)
Cc1cc2nc3c4cc([N+](=O)[O-])ccc4n(CCN(C)C)c3nc2cc1C	-15.7% (active)

---

System: NCI-H322M lung
protocol.text: NCI-60 one-dose screen, 48 h (100 = growth as untreated, 0 = no growth, -100 = all killed)
condition.notes: 10 µM unless noted
About 83,000 compounds went through this panel and 20% of them were active in at least one assay; those are over-represented in the sample as a whole.
The following compounds are shown together with reported growth values.

compound	display.unit	growth
COc1ccccc1/C(C)=N/NC(=O)CSc1nc2ccccc2c(=O)n1Cc1ccc(S(N)(=O)=O)cc1	%	90
Nc1c(C(=O)Nc2cccc3cnccc23)sc2nc3c(cc12)C(=O)CCC3	%	102
C=C(C)[C@@H]1CC[C@]2(C(=O)N3CCN(C)CC3)CC[C@]3(C)[C@H](CC[C@@H]4[C@@]5(C)C/C(=C/c6cccnc6)C(=O)C(C)(C)[C@@H]5CC[C@]43C)[C@@H]12	%	107
CC(=O)Nc1ccc(-c2ccc3c(c2)NC(=O)/C3=C\c2ccc[nH]2)cc1	%	64.5
COc1ccc(-c2cnc3c(-c4cccc5ncccc45)cnn3c2)cc1	%	42.7
O=C(CCN1CCCC1)c1ccc([N+](=O)[O-])cc1	%	101
COc1ccc2c(c1)C(=O)CC(c1ccccc1OC)O2 (stereo not given)	%	104
C/C(=N\Nc1cc(C)nc2ccc(Br)cc12)c1ccc([N+](=O)[O-])cc1	%	82.7
CCN(Cc1ccccc1)c1ccc(C=O)cc1	%	93.9
COc1cc(C2=C(c3cn(C)c4ccccc34)COC2=O)cc(OC)c1OC	%	26.6

---

Test system: NCI-H226 lung
protocol.text: NCI-60 one-dose screen, 48 h (100 = growth as untreated, 0 = no growth, -100 = all killed)
condition.notes: 10 µM unless noted
The panel holds about 83,000 compounds, 20% with a hit somewhere; the sample as a whole holds those more often.
observable: growth (%)

molecule	value
Cc1ccc(CNc2c3ccccc3nc3cc(NC(=O)CCN4CCCC4)ccc23)cc1	35
COc1cc(C=O)ccc1OC1OC(COC(C)=O)C(OC(C)=O)C(OC(C)=O)C1OC(C)=O (centres undefined)	93.8
CN(C)c1ccc(C2C(C#N)=C(/N=C/c3ccccc3)Oc3c2ccc2ccccc32)cc1 (centres undefined)	55.5
O=C(O)c1ccc(-c2nn(-c3ccc(C(F)(F)F)cc3)cc2CNc2ccc(Oc3ccccc3)cc2)cc1	86.8
COc1cc(CC(=O)n2ncc3ccc(N)cc32)cc(OC)c1OC	94.9
O=C1Nc2cc(-c3ccc(NC(=O)C4CC4)cc3)ccc2/C1=C/c1ccc[nH]1	101
COC(=O)C1=C(C(=O)ON)[C@@H]2C=C[C@@]1([C@@H](Cc1ccccc1)Nc1ccccc1)O2	105
[O-][n+]1c(Cl)cc(Cl)c2ccccc21	104
C=C1C(=O)O[C@H]2[C@H]1CC/C(CNC(=O)C(C)c1ccc(CC(C)C)cc1)=C\CC[C@@]1(C)O[C@@H]21 (some centres undefined)	75.1
